# Assay details: Pharmacokinetics of MRS4322 following intravenous administration to neonatal pigs
# Format: in vivo
# Condition context: female, pig, plasma, iv, 0.2 mg/kg, plasma, MRS4322 0.2 mg/kg IV, individual animals, read-out: Cl
Value type: clearance

Compound	Result
CSc1nc(N)c2ncn([C@H]3[C@H](O)[C@H](O)[C@]4(CO)C[C@H]34)c2n1 [MRS4322]	9.68 mL/min/kg

---

# Assay details: Pharmacokinetics of MRS4322 following intravenous administration to neonatal pigs
# Format: in vivo
# Condition context: female, pig, plasma, iv, 0.2 mg/kg, plasma, MRS4322 0.2 mg/kg IV, individual animals, read-out: AUClast
Value type: AUC(0-t) (ng·h/mL)

Cpd smiles	Value type	Readout number
CSc1nc(N)c2ncn([C@H]3[C@H](O)[C@H](O)[C@]4(CO)C[C@H]34)c2n1	AUC(0-t)	238
